The origin of these recorded values is PubChem BioAssay.

experiment: E. coli acrAB mutant growth effects, primary screen, E. coli filamentation inducers, strain DRC39, OD650, 24 h (AID 1178); conditions: higher = more signal, called active from +8 up or from −8 down;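 also: growth measured as culture turbidity by optical density at 650 nm; test concentration not given here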
recorded endpoint: z-score
// no unit, no text: just the number

Input: Any idea what z-score was measured for C#CCCCON=C1C[C@@H](O)[C@@H](O)[C@@H]2[C@@H]3C(=O)N([C@@H](C)c4ccccc4)C(=O)[C@@H]3CC[C@H]12 ?
Output: -0.0604

Input: Cool, now O=C1[C@H]2[C@H]3[C@H](O)[C@H](O)CC(=NOC[C@@H](O)COCc4ccco4)[C@@H]3CC[C@H]2C(=O)N1c1ccc(F)cc1F
Output: 0.0718

Input: Cool, now CC(CCC(=O)OC[C@H]1O[C@H](C#Cc2ccccc2)C=C[C@@H]1Oc1ccc(C)cc1)=NOC[C@@H](O)COCc1ccco1
Output: 0.564

Input: Cool, now CC=CC1=C(CO)[C@H](O)[C@H]2O[C@H]2[C@H]1O
Output: -0.227

Input: Cool, now O=C1[C@H]2[C@H]3[C@H](O)[C@H](O)CC(=NOC[C@@H](O)COCc4ccco4)[C@H]3CC[C@H]2C(=O)N1Cc1ccc2c(c1)OCO2
Output: 0.786

Input: Cool, now CO[C@@H]1COC(=O)CC=C[C@@H](C)[C@@H]2C=C[C@H](O)[C@@H](COC(=O)CCC[C@H]1C)O2
Output: 0.118

Input: Cool, now COc1ccc(COC(=O)NN=C2C[C@@H](O)[C@@H](O)[C@@H]3[C@@H]4C(=O)N(c5ccc(F)cc5F)C(=O)[C@@H]4CC[C@@H]23)cc1
Output: 0.583

Input: Cool, now CC(C)N1CC=CC23O[C@@H]4C=CCCOC(=O)C4[C@H]2C(=O)N(CCCCCCO)[C@@H]3C1=O (some centres undefined)
Output: 0.66

Input: Cool, now CC1CC/C=C\[C@H]2OC34C=CCN(Cn5nnc6ccccc65)C(=O)[C@H]3N(CCO)C(=O)[C@@H]4C2C(=O)O1 (some centres undefined)
Output: 0.673

Input: Cool, now CCN1C(=O)[C@H]2[C@H]3[C@H](O)[C@H](O)CC(=NOC[C@@H](C)[C@H](OCc4ccccc4)C(C)C)[C@@H]3CC[C@H]2C1=O
Output: 1.03

Input: Cool, now CCN1C(=O)[C@H]2[C@H]3[C@H](O)[C@H](O)CC(=NOC(C)CN4CCCCc5nc(C)c(C)cc54)[C@@H]3CC[C@H]2C1=O (some centres undefined)
Output: 0.538

Input: Cool, now CO[C@H]1O[C@H](CO)[C@@H](OC(=O)Nc2ccc(C#N)cc2)[C@H](OC(=O)c2cc3ccccc3[nH]2)[C@H]1OC(=O)c1cc2ccccc2[nH]1
Output: 2.96

Input: Cool, now CC(=O)OC[C@H]1O[C@H](CC=NOC[C@@H](C)[C@H](OCc2ccccc2)C(C)C)C=C[C@@H]1OC(C)=O
Output: 0.204

Input: Cool, now CCOC(=O)[C@H](Cc1ccccc1)NC(=O)CCC1CC(OC(=O)NCc2ccc3c(c2)OCO3)CC2(CCCC(COC(=O)NCC3CCCCC3)O2)O1 (some centres undefined)
Output: 0.0066

* * *

target: Torsin-1A (Homo sapiens); test: small-molecule binders of mutant TOR1A in lysate, primary screen, cell lysate, small-molecule microarray, COS7 lysate, 635/667 nm fluorescence (AID 1150); conditions: COS7 hTOR1A mutant lysate, 635 nm fluorescence, higher = more signal;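 also: score pools 667 nm emission and signal to noise measuring lysate protein binding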
recorded endpoint: composite z-score
// no unit, no text: just the number

Input: Any idea what composite z-score was measured for COCCCNC(=O)[C@@]1(CCS(=O)(=O)c2ccccc2)N=C(c2ccc(OCCCO)cc2)O[C@H]1c1ccccc1 ?
Output: 2.73

Input: Cool, now COC(=O)C1(C)C=C2C(=C(c3ccccc3)C(=O)C2C)CN1 (stereo not drawn)
Output: -0.367

Input: Cool, now COc1ccc(COC(=O)NN=C2C[C@@H](O)[C@@H](O)[C@@H]3[C@@H]4C(=O)N(Cc5ccc6c(c5)OCO6)C(=O)[C@@H]4CC[C@@H]23)cc1
Output: -0.686

Input: Cool, now CC(C)[C@@H](OCc1ccccc1)[C@H](C)C=NOC[C@@H](C)[C@H](OCc1ccccc1)C(C)C
Output: 0.204

Input: Cool, now O[C@@H](Cc1ccccc1)[C@H]1C2C=CCCC(c3ccccc3)=C2CN1Cc1cccc(Cl)c1 (stereo partly drawn)
Output: 0.144

Input: Cool, now CC(=O)C[C@H](O)[C@@H](NC(=O)OC(C)(C)C)C(C)C
Output: -0.657

Input: Cool, now O=C1[C@H]2[C@H]3[C@H](O)[C@H](O)CC(=NO[C@@H]4O[C@H](CO)[C@@H](O)[C@H](O)[C@H]4O)[C@@H]3CC[C@H]2C(=O)N1Cc1ccc2c(c1)OCO2
Output: 0.254

Input: Cool, now CCCC[C@@H]1C[C@H]1[C@@H](NS(=O)(=O)c1cccc2cccnc12)c1ccc(-c2ccccc2)cc1
Output: -0.199
